Would you mind telling me the reported growth of each entry?
System: UO-31 renal
Assay: NCI-60 one-dose screen, 48 h (100 = growth as untreated, 0 = no growth, -100 = all killed)
Conditions: 10 µM
This is part of a sample that, as a whole, favours compounds with a hit. Of some 83,000 tested, about 20% had one in any assay.
Give just the numeric value; % need not be written.

Exercise: Give a short answer stating reported growth for O=C(N/N=C/c1ccccc1O)c1ccccc1 .
Solution: 12.2

Exercise: Give me measured growth, please, for this molecule: C=CCOc1ccc2c(c1)CC[C@@H]1[C@@H]2CC[C@]2(C)C(=O)/C(=N/O)C[C@@H]12
Solution: 27.6

Exercise: Hello, please tell me recorded growth for this one: O=C1CC[C@@H](C(=O)N[C@H]2CSSC[C@@H](C(=O)N/C=C/c3ccc(O)cc3)NC(=O)[C@H](Cc3ccccc3)NC(=O)[C@@H]3CCCN3C(=O)[C@@H]3CCCN3C2=O)N1
Solution: 101

Exercise: In one line, give reported growth of the entry CCCCN(CCCC)c1ccc(C(=NC(C)CCCN(CC)CC)c2ccc(N(C)C)cc2)cc1 (centres undefined) .
Solution: -87.8

---

Test system: HCT-116 colon
Experiment: NCI-60 one-dose screen, 48 h
Conditions: 10 µM
This is part of a sample that, as a whole, favours compounds with a hit. Of some 83,000 tested, about 20% had one in any assay. Calls of active or inactive are those of the source. Rule for the calls: active = growth percent below 10; inactive = the rest.
Response enum: T = active, F = inactive

Exercise: Just curious, what result did O=C(O)c1cc(C(F)(F)F)cc(C(F)(F)F)c1 get here?
Solution: F

Exercise: Recorded test call requested for Cc1cc(/C=C2\SC(=Nc3ccccc3)N(C3CCCC3)C2=O)c(C)n1-c1ccc(Cl)cc1
Solution: T

Exercise: I would be grateful if you could indicate the recorded call for C=CCOc1ccc2c(c1)CC=C1[C@@H]2CC[C@]2(C)C(=O)/C(=N/O)C[C@@H]12 .
Solution: F

Exercise: What did this assay record as the result for COc1cc(/C=C/C(=O)c2cc(-c3ccccc3)ccc2O)cc(OC)c1OC ?
Solution: F

Exercise: Called result for Cc1nc2scc(-c3ccc(Cl)cc3)n2c(=O)c1CCN1CCOCC1
Solution: F

Exercise: How did this test come out for COc1ccc(-c2nc(SCC(=O)c3ccc(Br)cc3)[nH]c(=O)c2C#N)cc1 ?
Solution: F

Exercise: // param item: COc1ccc2nc(NC(=O)Nc3c(F)cccc3F)sc2c1 ; yields the recorded call
Solution: F

Exercise: Please state the recorded outcome for this compound: CCNC1(NC#N)CCCCC1
Solution: F

Exercise: What classification did COc1ccc(C(C)=O)cc1N1C(=O)C2C(C1=O)C1(c3ccccc3)C(=O)C2(c2ccccc2)C(c2ccc(C)cc2)=C1c1ccc(C)cc1 (stereo not given) end up with in this test?
Solution: F

Exercise: Recorded call for Nc1nc(SCC#CCCl)c2[nH]cnc2n1 ?
Solution: F

---

Test system: OVCAR-8 ovarian
Test: NCI-60 one-dose screen, 48 h
Conditions: 10 µM
Protocol: Growth inhibition of the OVCAR-8 human tumor cell line is measured as a screen for anti-cancer activity. Cells are grown in 96 well plates and exposed to the test compound for 48 hours. Compounds are tested at a single concentration, which is 10^-5 M for most compounds. The reported endpoint is percent growth (GI% or GIPRCNT), where numbers from 0 - 100% represent growth inhibition, and numbers from -100% - 0 represent cell death. For example, a value of 40 represents 60% growth inhibition. […]
About 83,000 compounds went through this panel and 20% of them were active in at least one assay; those are over-represented in the sample as a whole. Calls of active or inactive are those of the source. How the source made its calls: active means growth percent below 10; inactive means the rest.
Mark one answer only. Choices: active, inactive

Exercise: Record request — test call for COc1cc(C2c3cc4c(cc3C(O)C(CO)C2CO)OCO4)cc(OC)c1OC (configuration not stated)
Solution: inactive

Exercise: Hello, I am checking results. What call was entered for CCc1ccc(-c2nnc(COc3ccc(-c4nc5cc(Cl)c(Cl)cc5[nH]4)cc3OC)o2)cc1 ?
Solution: inactive

Exercise: Give the logged outcome of this assay for the following molecule: CC(C)(C)CC(C)(C)c1ccc(O)c(Cc2ccc(Cl)cc2Cl)c1
Solution: active

Exercise: Entry COc1ccc2nc(NC(=O)Nc3c(F)cccc3F)sc2c1 : call = ?
Solution: inactive

Exercise: What was the test verdict on COc1ccc(-c2nnc(SCC(=O)c3ccccc3)o2)cc1 ?
Solution: inactive

Exercise: Hello, I am checking results. What call was entered for COCCNCC(O)Cn1c2ccc(Cl)cc2c2cc(Cl)ccc21 (configuration not stated) ?
Solution: active

Exercise: What did this assay record as the result for Cc1cn(C(=O)/C(Cl)=C(/Cl)C(=O)O)c2ccccc12 ?
Solution: inactive

Exercise: Please indicate how the test categorized CCOC(=O)C1=C(Nc2ccc(OC)cc2)C(N)=NC1=N .
Solution: inactive

Exercise: # fetch the recorded call for CC[C@@]1(C(N)=O)CC2C=CC1C2 (some centres not stated) here
Solution: inactive

Exercise: Assay outcome for Nc1cc2c(cc1Cl)-c1ccc(Cl)cc1C2=O : what was it?
Solution: inactive

Exercise: I'd appreciate the recorded outcome for Cc1ccc(-c2cc(C(=O)Nc3ccc(S(=O)(=O)N4CCCCC4)cc3)[nH]n2)c(O)c1 from this test.
Solution: inactive

Exercise: Hi team, can someone confirm the assay call for COc1cc(Cl)cc(-c2nn(-c3cccc(NC(=O)Nc4cccc(C(F)(F)F)c4)c3)cc2-c2ccncc2)c1 ?
Solution: active

Exercise: // return assay outcome for Oc1[nH]c2ccccc2c1/C=c1/cc2c(c(-c3ccc(C(F)(F)F)cc3)n1)=Nc1ccccc1-2
Solution: inactive

Exercise: // param item: Cc1cccc2c1O/C(=C\c1ncc([N+](=O)[O-])n1C)C2=O ; yields the recorded call
Solution: active

Exercise: What classification did CCn1nc(-c2ccccn2)c2cccnc2c1=S end up with in this test?
Solution: inactive

Exercise: Each molecule tested received a call. Report the one for Cc1cc(OI)c(C(C)C)cc1-c1cc(C(C)C)c(OI)cc1C .
Solution: inactive

Exercise: Can you look up the reported call for CC(C)C[C@H](NC(=O)Cn1ccc(Nc2ccccc2)cc1=O)B(O)O for me?
Solution: inactive

Exercise: For this molecule, state the assay outcome: Oc1ccc(/C=N\Nc2ccccn2)c(O)c1
Solution: inactive

Exercise: Check the results log: what was the call for CCN(CC)CC(O)Cc1ccc(OC)cc1 (configuration not stated) ?
Solution: inactive

Exercise: Which outcome was entered for the molecule O=C1CC(c2cccc(-c3cccnc3)c2)=Nc2ccc(Br)cc2N1 in this test?
Solution: inactive

Exercise: Fill in: this test's call for COc1ccc(S(=O)(=O)Nc2ccc(OCc3nnc(-c4ccc(Cl)cc4)o3)c(F)c2)cc1 is ___
Solution: inactive

Exercise: Outcome logged for C[C@H](NC(=O)[C@@H]1CSSC[C@@H](NC(=O)Cc2nc3ccccc3cc2O)C(=O)NCC(=O)N1C)c1ccccc1 in this assay:
Solution: inactive
